All figures here come from PubChem BioAssay.

Test system: wheat germ agglutinin (Triticum aestivum), Alexa647-labelled
method-summary: Alexa647-WGA lectin binding to printed small molecules – biochemical, small-molecule microarray, 635/667 nm fluorescence, artefact control for SMM control-protein annotation, profiling panel (AID 1140);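 note: score merges 667 nm feature emission with signal to noise over triplicate slides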
protocol-conditions: WGA-A647 binding, 635 nm fluorescence, higher = more signal
quantity-name: composite z-score
Numbers only.

Lab note: each compound below needs its composite z-score filled in.
1. COCCOC(=O)N1C(=O)[C@@]2(c3cc(C#CCC(C(=O)OC)C(=O)OC)ccc31)[C@H](c1ccccc1OCCO)N1[C@H](c3ccccc3)[C@H](c3ccccc3)OC(=O)[C@H]1[C@@H]2C(=O)Nc1nc2ccccc2s1
2. NC(=O)[C@@]1(CCS(=O)(=O)c2ccccc2)N=C(c2ccc(OCCCO)cc2)O[C@H]1c1ccccc1
3. O=c1cccc(-c2ccccc2)o1
4. CCOC1=C2C(c3ccc(C)cc3)N(S(=O)(=O)c3ccc(C)cc3)CC2n2c(=O)n(-c3ccccc3)c(=O)n2C1 (configuration not stated)
5. O=C1O[C@@H](c2ccccc2)[C@@H](c2ccccc2)N2[C@@H](c3ccc(O)cc3)[C@]3(C(=O)Nc4ccc(C#CCCO)cc43)[C@@H](C(=O)N3CCCCCCC3)[C@H]12
6. CC(C)[C@H]1COC(=O)N1C(=O)[C@H]1[C@@H](c2ccccc2)N(c2ccccc2)O[C@@H]1C
7. CCN(CC)c1ccc(N2CC=CC34O[C@@H]5/C=C\CCCOC(=O)C5[C@H]3C(=O)N(CCCO)[C@@H]4C2=O)cc1 (some centres not stated)

[0.577, 1.17, 0.143, 0.755, 1.21, 0.127, -0.137]

###

method-summary: small molecules captured by biotinylated probe aFSTL3 – biochemical, small-molecule microarray, fluorescence 635/667, stem cell growth factor project, primary screen (AID 1064);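 note: measures binding of the biotinylated anti-FSTL3 antibody to printed compounds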
protocol-conditions: higher = more signal
quantity-name: composite z-score

COC(=O)[C@@]1(Cc2ccc(OC)cc2)[C@H]2c3cc(C(=O)N4CCCC4)n(C[C@H](O)CO)c3C[C@H]2CN1C(=O)c1ccccc1 ... 0.288
C=C(CCCC)C(=O)CC[C@H](OC(=O)c1ccccc1-c1ccccc1C(=O)O)c1ccc(CO)o1 ... -0.619
C/C=C/[C@H](CCn1cc([C@H](O)c2ccccc2)nn1)[Si](C)(C)c1ccc(OC)cc1 ... 1.18
CC(C)[Si]1(C(C)C)O[C@@H](c2ccccc2)c2cc(-c3ccc(-c4ccc(Cl)c(Cl)c4)o3)nc(CCc3ccccc3)c21 ... 0.662
O=C1O[C@@H](c2ccccc2)[C@@H](c2ccccc2)N2[C@@H](c3ccc(O)cc3)[C@]3(C(=O)Nc4ccccc43)[C@@H](C(=O)NC[C@H](O)c3ccccc3)[C@H]12 ... -0.263
COC(=O)[C@@]1(Cc2ccc(F)cc2)[C@H]2c3cc(C(=O)N(C)C)n(CCc4c[nH]c5ccc(OC)cc45)c3C[C@H]2CN1C(=O)c1ccccc1 ... 1.1

Please look at the following molecule next.
Given the molecule CCCCC(=O)N(Cc1ccccc1F)[C@@H]1CC(C(=O)NCCO)=C[C@H](Oc2c(I)cc(CO)cc2OC)[C@H]1O , what is its reported composite z-score?
-0.451

###

target-system: Fibroblast growth factor 10 (Homo sapiens)
method-summary: compounds binding fibroblast growth factor 10 – biochemical, small-molecule microarray, 635 nm fluorescence, primary screen (AID 1102)
protocol-conditions: FGF10 binding, fluorescence 635 nm, higher = more signal
Provide the reported composite z-score of each item.
Give bare numbers.

Use the examples below as a reference point.
CO[C@H]1O[C@H](CO)[C@@H](OC(=O)Nc2ccc(C(F)(F)F)cc2)[C@H](OC(=O)Nc2ccccc2)[C@@H]1OC(=O)Nc1ccccc1 ... 1.07
C=CCNC(=O)[C@@H]1[C@H]2C(=O)O[C@H](c3ccccc3)[C@H](c3ccccc3)N2[C@H](c2ccccc2OCCO)[C@@]12C(=O)N(C(=O)OCCOC)c1ccc(C#CCC(C(=O)OC)C(=O)OC)cc12 ... 1.43

Could you now look at the following compound, please?
Consider the compound COC(=O)c1c(CC[C@@H](CO)NC(=O)Nc2ncn[nH]2)oc(C(=O)Cc2ccccc2)c1C(=O)OC and give its measured composite z-score.
1.08

###

System: PRMT1 (protein arginine N-methyltransferase 1)
method-summary: small molecules binding arginine methyltransferase PRMT1 – biochemical, small-molecule microarray, 635 nm fluorescence, primary screen (AID 1088);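 note: binding of Prmt1 protein to compounds spotted on small-molecule microarray slides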
protocol-conditions: higher = more signal
quantity-name: composite z-score
Numbers only.

CC(C)C(O)C1C=CC2C(=O)N(C)C(=O)C2N1N1CCCCC1 (centres undefined) ... 0.594
CN(C)CCCC[C@@H]1NC(=O)[C@H]2C[C@@H](C(=O)NCCCCCNC(=O)CS)[C@@H](c3ccc(O)cc3)N2C1=O ... -0.97
O=C(NCC(O)CO)[C@@]1(Cc2ccccc2)N=C(c2ccc(OCCCO)cc2)O[C@H]1c1ccccc1 (some centres undefined) ... 0.814

// next entry
Data request, read-out composite z-score, for CN(C)CCCCCCNC(=O)[C@@H]1C[C@@H]2C(=O)N[C@@H](Cc3ccccc3)C(=O)N2[C@@H]1c1cccc(OCCO)c1
1.55

###

method-summary: blockers of DNA damage checkpoint Chk1 activation – imaging, HeLa, hydroxyurea, phospho-Chk1 antibody, percent positive cells, primary screen (AID 1186)
protocol-conditions: hydroxyurea-induced phospho-Chk1 immunofluorescence imaging, higher = more signal
quantity-name: z-score
Answers are plain numbers.

Examples with answers:
CCN(CC)c1ccc(N2CC=CC34O[C@@H]5/C=C\CCCOC(=O)C5[C@H]3C(=O)N(CCCO)[C@@H]4C2=O)cc1 (some centres not stated) ... -0.343
COc1ccc([Si](C)(C)[C@@H]2[C@@H](CCO)O[C@]3(C(=O)N(Cc4cccc(N5CCCCC5=O)c4)c4ccccc43)[C@H]2C)cc1 ... -0.405
[N-]=[N+]=NCc1ccccc1[C@@H]1OC(c2ccc(OCCCO)cc2)=N[C@]1(Cc1ccccc1N=[N+]=[N-])C(N)=O ... 0.135
COc1ccc([Si](C)(C)[C@H]2[C@H](CC(=O)N3CCC[C@H]3CO)O[C@@]3(C(=O)N(Cc4cccc(N5CCC5=O)c4)c4ccccc43)[C@@H]2C)cc1 ... 0.307
C=C(CCCC)/C(=C/C[C@@H](OC(=O)c1ccncc1)c1ccc(CO)o1)c1cc(C(=O)OC)ccc1OC ... -0.762
C=CCC(OC(C)=O)[C@@H]1[C@@H](N(Cc2ccc(-c3ccccc3)cc2)C(=O)c2ccc(C)cc2)c2cc(OCCCO)ccc2N1C(=O)c1ccc2ccccc2n1 (some centres not stated) ... -0.641

Now look at this one.
Using the record for C[N+](C)(C)CCCC[C@@H]1NC(=O)[C@H]2C[C@@H](C(=O)O)[C@@H](c3cccc(OCCO)c3)N2C1=O , report its z-score.
0.336

###

Tested on: Lefty1
method-summary: Lefty1 protein binding to printed compounds – biochemical, small-molecule microarray, 635/667 nm fluorescence, primary screen (AID 1139)
protocol-conditions: fluorescence 635/667, higher = more signal
quantity-name: composite z-score
One number for each entry.

Please review the following examples before continuing.
C=CCC(OC(C)=O)[C@@H]1[C@@H](N(Cc2cc3ccccc3o2)C(=O)c2ccc(-c3ccccc3)cc2)c2cc(OCCCO)ccc2N1C(=O)Cc1ccc2ccccc2c1 (some centres undefined) ... -0.0934
O=C1C2C=CC(C(O)c3ccc(-c4ccccc4)s3)N(Nc3ccccc3F)C2C(=O)N1c1ccccc1 (centres undefined) ... 0.133
C=CCN1Cc2ccccc2C[C@@]2(COC(c3ccc(OCCCO)cc3)=N2)C1=O ... 0.374

Then this compound:
Data request, read-out composite z-score, for COc1ccc([Si](C)(C)[C@@H]2[C@@H](CCn3cc([C@H](O)c4ccccc4)nn3)O[C@]3(C(=O)N(C)c4ccccc43)[C@H]2C)cc1
0.57

###

target-system: Neurogenic locus notch homolog protein 2 (Homo sapiens)
method-summary: small molecules binding Notch2 protein – biochemical, small-molecule microarray, 635 nm fluorescence, stem cell growth factors, primary screen (AID 1073)
protocol-conditions: higher = more signal
Please provide measured composite z-score for the entries that follow.
Numbers only.

Some entries whose results are on file:
Cc1ccc([C@H]2C(C(=O)O)=C[C@@H](C(C)C)N2S(=O)(=O)c2ccc(C)cc2)cc1 ... 1.14
[N-]=[N+]=NCc1ccccc1[C@@H]1OC(c2ccc(OCCCO)cc2)=N[C@]1(Cc1ccccc1)C(=O)O ... 0.526
C=C(CCCC)/C(=C/C[C@H](OC(C)=O)c1ccc(CO)o1)c1cc(C(=O)OC)ccc1OC ... -0.0467

Would you kindly look at the next entry?
Looking for the measured composite z-score of O=C(CS)NCCCCCNC(=O)[C@H]1C[C@H]2C(=O)N[C@@H](Cc3ccccc3)C(=O)N2[C@H]1c1cccc(OCCO)c1 , can you help?
0.617

###

method-summary: changes in parasitized red cell lysis, either direction – P. falciparum Indochina, OD700, 3 h, PSAC antagonist project, primary screen (AID 1156)
protocol-conditions: P. falciparum-infected erythrocytes, osmotic lysis, higher = more signal, called active from +8 up or from −8 down
So I've got a bunch of compounds here, and I need their z-score values.
One number for each entry.

COC(=O)c1c(CC[C@@H](CO)NC(=O)Nc2ncn[nH]2)oc(C(=O)Cc2ccccc2)c1C(=O)OC ... -0.641
CCCC[C@H]1OB(O)C[C@H]2C1=C(COc1ccccc1)C[C@H]1C(=O)N(Cc3ccccc3)C(=O)[C@H]12 ... 0.0146
Cc1ccc(N2C(=O)c3ccccc3[C@@H](C(=O)NC(C)C)[C@@H]2c2ccc(CO)cc2)nc1 ... 0.884

Next, consider the following compound.
Quick one: z-score for O=C1C2C=CC(C(O)CCc3ccccc3)N(Nc3ccccc3)C2C(=O)N1c1ccccc1 (centres undefined) ?
0.624
